system: human hepatocyte growth factor receptor mRNA; assay: Inhibition of human hepatocyte growth factor receptor mRNA levels in T-24 cells, quantitative real-time PCR; details: averages from three experiments; further: test concentration or dose not given here
Strand notation (5' to 3'): a small letter for the sugar, then the base; units joined by * are phosphorothioate-linked, units joined directly phosphodiester-linked; [ ] holds rarer units or linkages, { } end groups; capitals alone tell only the bases. e = 2'-O-(2-methoxyethyl) (MOE); [5mC] = 5-methylcytosine; d = 2'-deoxy (DNA)
Experimental Endpoint: % INHIB (inhibition of human hepatocyte growth factor receptor mRNA levels) (%)

>>> measured("155124 (antisense eT*eA*eT*eG*eA*dT*dG*dT*d[5mC]*dT*d[5mC]*d[5mC]*d[5mC]*dA*dG*eA*eA*eG*eG*eA) [compound 155124]")
53
>>> measured("209540 (antisense e[5mC]*eA*e[5mC]*eA*eT*d[5mC]*d[5mC]*d[5mC]*dT*dT*dG*dT*dA*dA*dG*eT*eT*eG*eG*eA) [compound 209540]")
52
>>> measured("209532 (antisense eA*eG*eT*eA*e[5mC]*dT*dA*dA*dT*dA*dA*dA*dA*dG*dA*eT*eT*eT*eG*eG) [compound 209532]")
0
